Test system: CD4+ T-cells (PBMCs)
Test: In vitro peptide stimulation and T-cell proliferation assay, CD4+
Format: cell-based, human
Conditions: Type 1 diabetes (N = 18)
Where no end group is shown, it is not given here.
valueType: CD4+ T-cell response, subjects with SI > 5 (%)

chainSequence	target	valueReported
SLYQLENYCN (Ac-SLYQLENYCN) [insulin A:12-21 native peptide]	CD4+ T-cells (PBMCs)	(21.1%)
ERGFFYTPKTR (Ac-ERGFFYTPKTR) [INSP-6 with C-terminal arginine]	CD4+ T-cells (PBMCs)	(21.1%)

---

System: serum IgG autoantibodies
Assay: ELISA for autoantibody detection: serum antibody binding to native and oxPTM insulin peptides
Parameters: species or system human
Settings: Study cohort 1; in silico modifications
Where no end group is shown, it is not given here.
# maps each entry to its Mean ± SEM (absorbance, OD), Healthy controls
Reply briefly: the number, and no unit.

chainSequence	valueReported
ERGFFYTPKT (Ac-ERGFFYTPKT) [insulin B:21-30 native peptide]	0.263
SLYQLENYCN (Ac-SLYQLENYCN) [insulin A:12-21 native peptide]	0.143
ERGYYYTPKT (Ac-ERGYYYTPKT) [in silico designed oxPTM-INSP-6 derivative]	0.351

Query :: Under serum IgG autoantibodies: Mean ± SEM (absorbance, OD), Healthy controls value of ERGYYYTPKTR (Ac-ERGYYYTPKTR) [oxPTM-INSP-6 version with a C-terminal arginine] ?
Result :: 0.423

---

System: serum IgG autoantibodies
Test: ELISA for autoantibody detection: serum antibody binding to native and oxPTM insulin peptides
Parameters: species or system human
Conditions: Study cohort 1 sera; in silico modifications
Where no end group is shown, it is not given here.
valueType: Mean ± SEM (absorbance, OD), Type 1 diabetes
Hey, just send me the number, nothing else.

Worked examples, 2 sequences total:
chainSequence	valueReported
ERGFFYTPKT (Ac-ERGFFYTPKT) [insulin B:21-30 native peptide]	0.423
ERGYYYTPKT (Ac-ERGYYYTPKT) [in silico designed oxPTM-INSP-6 derivative]	0.556

Query :: Report Mean ± SEM (absorbance, OD), Type 1 diabetes for SLYQLENYCN (Ac-SLYQLENYCN) [insulin A:12-21 native peptide] please.
Result :: 0.242

Query :: Now consider ERGYYYTPKTR (Ac-ERGYYYTPKTR) [oxPTM-INSP-6 version with a C-terminal arginine] .
Result :: 0.697

---

Test system: serum IgG autoantibodies
Assay: ELISA for autoantibody detection: serum antibody binding to native and oxPTM insulin peptides
Parameters: species or system human
Settings: Study cohort 1; in house modifications; cut-off = mean of healthy controls to Nt-INSP plus 3 SEM
Where no end group is shown, it is not given here.
Catalogue of % binders, Type 1 diabetes readings, one per entry.
Your answer is read as %, so omit the unit and give the number.

Example cases with answers are listed next.
substance	% binders, Type 1 diabetes / %
INSP-3 oxPTM-•OH: INSP-3 peptide oxidised in house by hydroxyl radical (SLYQLENYCN; not fully specified (N-terminus); also: oxidised by hydroxyl radical, modified residues not defined)	86
INSP-4 oxPTM-•OH: INSP-4 peptide oxidised in house by hydroxyl radical (LVEALYLVCGERGFFYTPKT; also: oxidised by hydroxyl radical, modified residues not defined)	58
SLYQLENYCN (Ac-SLYQLENYCN) [insulin A:12-21 native peptide]	42
INSP-6 oxPTM-•OH: INSP-6 peptide oxidised in house by hydroxyl radical (ERGFFYTPKT; not fully specified (N-terminus); also: oxidised by hydroxyl radical, modified residues not defined)	83

Next item in the queue.
Query :: Give its % binders, Type 1 diabetes value. Item: INSP-3 oxPTM-HOCI: INSP-3 peptide oxidised in house by HOCl (SLYQLENYCN; not fully specified (N-terminus); also: oxidised by HOCl, modified residues not defined)
Result :: 53

---

System: serum IgG autoantibodies
Assay: ELISA for autoantibody detection: serum antibody binding to native and oxPTM insulin peptides
Parameters: species or system human
Conditions: Study cohort 1; in house modifications
Description: ELISA for autoantibody detection. The ELISA analysis of Nt-INS and oxPTM-INS autoantibodies was performed as previously described [18](detailed in ESM methods, ELISA assay for antibody detection). Statistical analyses. […] Cut-off points of positivity (binders) in the antibody ELISA for each peptide were defined by the mean of optical absorbance (O.D) of healthy controls to the corresponding Nt-INSP plus three times the standard error of the mean (SEM). […]
Where no end group is shown, it is not given here.
valueType: Mean ± SEM (absorbance, OD), Healthy controls
Lab note: jot the number down without any unit.

Some solved cases for reference:
substance	valueReported
INSP-3 oxPTM-HOCI: INSP-3 peptide oxidised in house by HOCl (SLYQLENYCN; not fully specified (N-terminus); also: oxidised by HOCl, modified residues not defined)	0.452
LVEALYLVCGERGFFYTPKT [insulin B:11-30 native peptide]	0.306
ERGFFYTPKT (Ac-ERGFFYTPKT) [insulin B:21-30 native peptide]	0.263
INSP-4 oxPTM-HOCI: INSP-4 peptide oxidised in house by HOCl (LVEALYLVCGERGFFYTPKT; also: oxidised by HOCl, modified residues not defined)	0.296
INSP-4 oxPTM-•OH: INSP-4 peptide oxidised in house by hydroxyl radical (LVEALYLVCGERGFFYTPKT; also: oxidised by hydroxyl radical, modified residues not defined)	0.344

Query :: Field request: Mean ± SEM (absorbance, OD), Healthy controls | item: SLYQLENYCN (Ac-SLYQLENYCN) [insulin A:12-21 native peptide]
Result :: 0.333

Query :: Same lookup for INSP-6 oxPTM-HOCI: INSP-6 peptide oxidised in house by HOCl (ERGFFYTPKT; not fully specified (N-terminus); also: oxidised by HOCl, modified residues not defined) , please.
Result :: 0.312

Query :: Then what about the substance INSP-6 oxPTM-•OH: INSP-6 peptide oxidised in house by hydroxyl radical (ERGFFYTPKT; not fully specified (N-terminus); also: oxidised by hydroxyl radical, modified residues not defined) ?
Result :: 0.280

Query :: Entry INSP-3 oxPTM-•OH: INSP-3 peptide oxidised in house by hydroxyl radical (SLYQLENYCN; not fully specified (N-terminus); also: oxidised by hydroxyl radical, modified residues not defined) please
Result :: 0.617

---

System: serum IgG autoantibodies
Assay: ELISA for autoantibody detection: serum antibody binding to native and oxPTM insulin peptides
Design: species or system human
Conditions: Study cohort 1; in silico modifications
Method: ELISA for autoantibody detection. The ELISA analysis of Nt-INS and oxPTM-INS autoantibodies was performed as previously described [18](detailed in ESM methods, ELISA assay for antibody detection). Statistical analyses. […] Cut-off points of positivity (binders) in the antibody ELISA for each peptide were defined by the mean of optical absorbance (O.D) of healthy controls to the corresponding Nt-INSP plus three times the standard error of the mean (SEM). […]
Where no end group is shown, it is not given here.
valueType: % binders, Healthy controls (%)
# output: bare number, implied unit %

Recorded % binders, Healthy controls, per entry:
chainSequence	% binders, Healthy controls [%]
SLYQLENYCN (Ac-SLYQLENYCN) [insulin A:12-21 native peptide]	9
ERGFFYTPKT (Ac-ERGFFYTPKT) [insulin B:21-30 native peptide]	16
ERGYYYTPKTR (Ac-ERGYYYTPKTR) [oxPTM-INSP-6 version with a C-terminal arginine]	48

# next sequence below
Query :: Which % binders, Healthy controls value belongs to ERGYYYTPKT (Ac-ERGYYYTPKT) [in silico designed oxPTM-INSP-6 derivative] ?
Result :: 25

---

Overview of reported % binders, Healthy controls across a group of substances:
Test system: serum IgG autoantibodies
Assay: ELISA for autoantibody detection: serum antibody binding to native and oxPTM insulin peptides
Parameters: species or system human
Details: Study cohort 1; in house modifications
Where no end group is shown, it is not given here.
Provide the reading as a plain figure in %.

Completed entries (count: 4):
substance	% binders, Healthy controls [%]
INSP-4 oxPTM-HOCI: INSP-4 peptide oxidised in house by HOCl (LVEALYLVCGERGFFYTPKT; also: oxidised by HOCl, modified residues not defined)	27
INSP-3 oxPTM-HOCI: INSP-3 peptide oxidised in house by HOCl (SLYQLENYCN; not fully specified (N-terminus); also: oxidised by HOCl, modified residues not defined)	40
INSP-6 oxPTM-•OH: INSP-6 peptide oxidised in house by hydroxyl radical (ERGFFYTPKT; not fully specified (N-terminus); also: oxidised by hydroxyl radical, modified residues not defined)	12
SLYQLENYCN (Ac-SLYQLENYCN) [insulin A:12-21 native peptide]	19

Query :: Form: Entry = INSP-3 oxPTM-•OH: INSP-3 peptide oxidised in house by hydroxyl radical (SLYQLENYCN; not fully specified (N-terminus); also: oxidised by hydroxyl radical, modified residues not defined) | System = serum IgG autoantibodies | % binders, Healthy controls = ____
Result :: 86

Query :: Could you do the same for INSP-6 oxPTM-HOCI: INSP-6 peptide oxidised in house by HOCl (ERGFFYTPKT; not fully specified (N-terminus); also: oxidised by HOCl, modified residues not defined) , please?
Result :: 25

Query :: Also check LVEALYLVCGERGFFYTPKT [insulin B:11-30 native peptide]
Result :: 20

Query :: And for ERGFFYTPKT (Ac-ERGFFYTPKT) [insulin B:21-30 native peptide] ?
Result :: 10

Query :: Now consider INSP-4 oxPTM-•OH: INSP-4 peptide oxidised in house by hydroxyl radical (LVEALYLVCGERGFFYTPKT; also: oxidised by hydroxyl radical, modified residues not defined) .
Result :: 27
